- Target under test: Recombinant human his-tagged IGF 1R extracellular domain protein (human) (UniProt P08069)
- Experiment summary: SPR, captured IgG, IGF-1R ECD-his analyte, dissociation pH 7.4
The following binders are shown together with reported pKd values.
# pKd: negative log10 of molar concentration; output just the value

[
  {
    "Binder": "VRDN-02511 (antibody, V domains shown) VH: EVQLVQSGGGLVKPGGSLRLSCAASGFTFSSFAMHWVRQAPGKGLEWISVIDHRGATYYADSVKGRFTISRDNAKNSLYLQMNSLRAEDTAVYYCARLGNFYYGMDVWGQGTTVTVSS VL: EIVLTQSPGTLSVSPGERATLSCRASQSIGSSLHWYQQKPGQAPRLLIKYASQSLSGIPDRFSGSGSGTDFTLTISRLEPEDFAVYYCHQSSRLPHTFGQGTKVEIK",
    "pKd": 7.38
  }
]

// pKd lookup, key: VRDN-02566 (antibody, V domains shown) VH: EVQLVQSGGGLVKPGGSLRLSCAASGFTFSSFAMHWVRQAPGKGLEWISVIDTRGATYYADSVKGRFTISRDNAKNSLYLQMNSLRAEDTAVYYCHRLGNFYYGHDVWGQGTTVTVSS VL: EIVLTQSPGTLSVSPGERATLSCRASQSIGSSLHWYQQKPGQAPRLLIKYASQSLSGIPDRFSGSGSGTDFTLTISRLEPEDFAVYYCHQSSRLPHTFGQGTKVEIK
7.76

// pKd lookup, key: VRDN-02552 (antibody, V domains shown) VH: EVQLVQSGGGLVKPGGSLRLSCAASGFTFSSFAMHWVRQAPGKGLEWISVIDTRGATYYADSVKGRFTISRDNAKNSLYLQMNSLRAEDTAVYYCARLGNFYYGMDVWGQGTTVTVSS VL: EIVLTQSPGTLSVSPGERATLSCRASQSIGSSLHWYQQKPGQAPRLLIKYASQSLSGIPDRFSGSGSGTDFTLTISRLEPEDFAVYYCHQSSRLPHHFGQGTKVEIK
10.51

Values were extracted from patent US20240343814A1.
